# Test system: Zika virus NS2B-NS3 protease (unlinked complex)
# assay_remarks: Primary screen GU Rhodamine qHTS for Zika virus inhibitors: Unlinked NS2B-NS3 protease assay (AID 1347159); also: nearly all actives have a fitted effect of over 60% in size
# settings: Recombinant ZIKV NS2B-NS3 protease, Rhodamine110 substrate fluorescence; series mostly up to 107 µM
Records with an inconclusive call do not appear. The source made the active and inactive calls. Calls follow the shape of the dose curve; as a rule, active = well fitted inhibition curve with a large enough effect; inconclusive = small, poorly fitted or top-dose-only effect; inactive = no such curve, though single readings can be large or run the other way.
Labels: yes (1) (active), no (0) (inactive)

COCCN(C(=O)c1cc(OC)c(OC)c(OC)c1)c1nc(-c2ccccc2)cs1 = no (0)
COc1cccc(-c2cn(-c3ccc(CCN4CCC(O)CC4)cc3)c3ncnc(N)c23)c1 = no (0)
CC(C)(C[C@@](O)(Cc1cc2ccncc2[nH]1)C(F)(F)F)c1cc(F)ccc1O = no (0)
Cc1ccc(NC(=O)N2CCN(c3nc(N)nc4sc(-c5cccnc5)nc34)CC2)cc1 = no (0)
C=CC(=O)Nc1ccc(CN2C(=O)N(c3cc(OC)cc(OC)c3)Cc3cnc(Nc4ccc(N5CCN(C)CC5)cc4)nc32)cc1 = no (0)
O=C(O)c1cccc(-c2ccc(-c3cn(C(=O)N4CCCCC4Cc4ccccc4)nn3)cc2)c1 (centres undefined) = yes (1)
O=C1Nc2nc(-c3c(O)cccc3OCC3CC3)cc([C@@H]3CCCNC3)c2CO1 = no (0)
Cn1c(=O)c(F)c(Nc2ccc(I)cc2F)c2c(=O)n(CC(O)CO)cnc21 (centres undefined) = no (0)
COC1=CC(=O)C=C(C)C12Oc1c(Cl)c(OC)cc(OC)c1C2=O (centres undefined) = no (0)

---

# Tested on: C33A
# assay_remarks: Primary qHTS to identify gynecologic anti-cancer compounds using libraries of approved drugs and bioactive compounds (AID 1345084); also: nearly all actives have a fitted effect of over 55% in size
# settings: Gynecologic cancer cell panel viability, ATPlite luminescence, 48 h; series mostly up to 57.5 µM
Results filed as inconclusive are left out. Active and inactive are the calls of the source. Calls follow the shape of the dose curve; as a rule, active = well fitted cell-killing curve with a large enough effect; inconclusive = small, poorly fitted or top-dose-only effect, or effect the other way; inactive = flat fitted curve, though single readings scatter.
Labels: active, inactive

CCCC(=O)C1(c2ccccc2)CCN(C(=O)[C@@H](Cc2ccc(OC)cc2)NC(=O)[C@@H](N)Cc2cncn2C)CC1 = inactive
COc1cc(-c2cn(C3CCc4c(F)cccc4N(CC(F)(F)F)C3=O)nn2)ccc1-n1cnc(C)c1 (configuration not stated) = inactive
CCC/C=C/C=C/C1CC(O)C2(O)C(=O)OCC12 (configuration not stated) = inactive
CCNC1(C(N)=O)CCN(c2ncnc3c2nc(-c2ccccc2Cl)n3-c2ccc(Cl)cc2)CC1 = inactive
Cc1cc(-c2cc(OC(=O)c3ccccc3)ccc2Cl)cc2nnc(Nc3ccc(OCCN4CCCC4)cc3)nc12 = inactive
CC(C)c1ccc(NC(=O)c2cccs2)c(-c2nc3ccccc3[nH]c2=O)c1 = inactive
COc1cc2ncnc(Nc3ccc(F)c(Cl)c3)c2cc1O = inactive
O=S(=O)(c1ccccc1)N(CC(F)(F)F)c1ccc(C(O)(C(F)(F)F)C(F)(F)F)cc1 = inactive
C=C1C(=O)OC2C1CCC1(C)C(O)CC=C(C)C21 (configuration not stated) = inactive
COC1=CC(=O)C=C(C)C12Oc1c(Cl)c(OC)cc(OC)c1C2=O (configuration not stated) = inactive
C=C1C(=O)OC2/C=C(\C)CC/C=C(\C)CC(OC(C)=O)C12 (configuration not stated) = inactive
C/C=C/CCC1Cc2cc(O)c(CCCC)c(O)c2C(=O)O1 (configuration not stated) = inactive
C=C1C(OC2OC(CO)C(O)C(O)C2O)CC2C(C)(C)C(O)CCC2(C)C1CC/C(C)=C\COC(=O)CC(=O)O (configuration not stated) = inactive
COc1cc(C#N)ccc1S(=O)(=O)Nc1ccc2c(c1)cc(C)c(=O)n2C = inactive
CC#CCn1c(N2CCCC(N)C2)nc2c1c(=O)n(Cc1nc(C)c3ccccc3n1)c(=O)n2C (configuration not stated) = inactive
CCOC(=O)N1CCC(CN(Cc2ccc(Cl)cc2)Cc2ccc([N+](=O)[O-])s2)C1 (configuration not stated) = inactive
Cc1nc2cc(C(=O)NCc3ccccn3)nn2c(C)c1Cc1cccc(Cl)c1 = inactive
O=C(Nc1ccc(Cl)cc1)C1CCCN(C(=O)c2cccc(-c3ccco3)c2)C1 (configuration not stated) = inactive
CCC/C=C/c1cc2c(C=O)c(O)c(CC=C(C)C)cc2o1 = inactive
C/C(=C/C=C\C=C\Cc1cnco1)[C@@H](O)C(C)(C)C(N)=O = inactive
CCCn1ncc(CN2CCCC(C(=O)c3cccc(OC(C)C)c3)C2)c1C (configuration not stated) = inactive
CCC(C)/C=C(C)/C=C/C1=CC2=C(Cl)C(=O)C(C)(OC(C)=O)C(=O)C2(O)C(OC)O1 (configuration not stated) = inactive
CCc1cccc(CC)c1-n1c(C=C(C)C)c(C(=O)N2CCNCC2)cc(-c2nc(-c3ccc(C(F)(F)F)cc3)cs2)c1=O = inactive
CC(O)(C(=O)C1CC1(CO)COC1OC(CO)C(O)C(O)C1O)C1C(O)CC2C3CC=C4CC(O)CC(O)C4(C)C3C(O)CC21C (configuration not stated) = active
Cc1ccc(F)cc1S(=O)(=O)N[C@@H]1CCN(Cc2ccc(OC(C)C)cc2)C1 = inactive
COc1cc(NC(=O)c2cc(C3CC3)on2)c(OC)cc1Cl = inactive
CCn1c(=O)c(-c2ccc(Cl)cc2Cl)cc2cnc(Nc3ccc(N4CCNCC4)c(F)c3)nc21 = inactive
COc1ccc(Sc2ccc(NC(=O)c3ccccc3Cl)cc2C#N)cc1 = inactive
CCn1nc(C2CCN(C(=O)CCO)CC2)nc1-c1cnc(N)c(-c2nnc(C(C)(C)C)o2)n1 = inactive
COc1ccc(CCCN2CCC(COC(c3ccccc3)c3ccccc3)CC2)cc1 = inactive
CCCC(CCC)C(=O)Nc1ccn([C@@H]2O[C@H](CO)[C@@H](O)C2(F)F)c(=O)n1 = inactive
CC1(NC(=O)c2ccc(C#Cc3cccc(F)c3)cn2)COC1 = inactive
CC[C@@H](Nc1c(Nc2cccc(C(=O)N(C)C)c2O)c(=O)c1=O)c1cc(C(C)C)co1 = inactive
CC(=O)O[C@@H]1C[C@@]2(C)C(CC[C@]3(C)C2CC=C2C4CC(C)(C)CC[C@]4(C(=O)O)CC[C@]23C)C(C)(C)[C@H]1O (some centres not stated) = inactive
CC1(C)OC[C@H](NC(=O)Nc2ccc(Br)cc2Br)[C@H](c2ccccc2)O1 = inactive
C=C(C)C(=O)O[C@H]1[C@H]2C(=C)C(=O)O[C@@H]2/C=C(\CO)CC/C=C(/C=O)[C@@H]1O = inactive
COc1c2c(c(C)c3c1C(=O)OC3)O[C@@]1(C)C[C@@H](OC(C)=O)[C@]34O[C@](OC)(CC[C@]3(C)[C@H]1C2)OC4(C)C = inactive

---

# target_under_test: Guanidinoacetate N-methyltransferase (Homo sapiens)
# assay_remarks: Confirmatory Screen for Target Class Profiling of Small Molecule Inhibitors of Methyltransferases (AID 1745852); also: % is scaled to controls: 0 for no effect and ±100 for the full control effect
# settings: MTase-Glo luminescence, SAH detection, recombinant enzyme; at 57.3 µM (top of the series) unless noted
Known activity change, negative = inhibition of a selection of compounds
property_name: activity change, negative = inhibition (%)

O=S1(=O)CCN(Cc2cc(NCC3CCOCC3)c3[nH]c(-c4ccccc4)cc3c2)CC1 = -1.81
Nc1ncnc2c1c(-c1ccc(Oc3ccccc3)cc1)nn2[C@@H]1CCCNC1 = -5.27
Cc1[nH]c2ccccc2c1CCNCc1ccc(/C=C/C(=O)NO)cc1 = -2.13
Cc1cn(CCN2CCN(c3ccccc3-c3cc(C#N)cc(C(=O)NCCCN4CCCC4)c3)CC2)c2ccccc12 = 10.2
COc1cc(/C=N\NC(=O)c2ccc3c(c2)OCO3)ccc1OCc1ccccc1 = 1.69
Cc1sc2c(c1C)C(c1ccc(Cl)cc1)=N[C@H](CC(=O)NCCCCNC(=O)COc1cccc3c1C(=O)N([C@H]1CCC(=O)NC1=O)C3=O)c1nnc(C)n1-2 = 0
CCN(CC)CCCCCCNc1cc(OC)cc2c(C)ccnc12 = -0.864

---

# assay_remarks: qHTS Assay for Identifying Gametocytocidal Compounds (AID 743244);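 also: % is scaled to controls: 0 for no effect and ±100 for the full control effect; actives lower the fluorescent signal which means gametocytes are killed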
# settings: P. falciparum 3D7 stage III-V gametocytes, alamarBlue, 72 h; stronger effect = lower value
Results filed as inconclusive are left out.
Known max response of a selection of compounds
property_name: max response (%)

C=Cc1ccccc1 = 5.81
Nc1ncnc(Nc2ccc(Cl)cc2)n1 = -12
CO[C@H]1C[C@H](O[C@H]2[C@H](C)O[C@@H](O[C@@H]3/C(C)=C/C[C@@H]4C[C@@H](C[C@]5(C=C[C@H](C)[C@@H](C6CCCCC6)O5)O4)OC(=O)[C@@H]4C=C(C)[C@@H](O)[C@H]5OC/C(=C\C=C\[C@@H]3C)[C@]54O)C[C@@H]2OC)O[C@@H](C)[C@@H]1O = -11.6
O.O=C([O-])CC([S-])C(=O)[O-].[Au+].[Na+].[Na+] (stereo not drawn) = -19.1
O=C(CO)[C@@H](O)[C@H](O)[C@H](O)CO = 0.975
CCC(=O)OCC(=O)[C@@]1(OC(=O)CC)[C@@H](C)C[C@H]2[C@@H]3CCC4=CC(=O)C=C[C@]4(C)[C@@]3(Cl)[C@@H](O)C[C@@]21C = 0.406
CN=C(NC)NCc1ccccc1 = 13.1
O=S(=O)(O)Oc1ccc(C(c2ccc(OS(=O)(=O)O)cc2)c2ccccn2)cc1 = 4.73
COc1ccc(C(=O)Nc2ccccc2CCC2CCCCN2C)cc1 (stereo not drawn) = 14.2
CCC[C@@]1(CCc2ccccc2)CC(O)=C([C@H](CC)c2cccc(NS(=O)(=O)c3ccc(C(F)(F)F)cn3)c2)C(=O)O1 = 14.3
CC(=O)OC[C@H]1O[C@@H](O[C@H]2[C@H](O)[C@@H](OC(=O)c3ccccc3C(=O)O)[C@H](O)O[C@@H]2COC(C)=O)[C@H](O)[C@@H](OC(=O)c2ccccc2C(=O)O)[C@@H]1O = -3.61
CCCCCCCCCCCCCCCC(=O)OC[C@H](O)[C@H]1OC(=O)C(O)=C1O = 0.191
CCC(c1ccccc1)c1noc(CCN(CC)CC)n1 (stereo not drawn) = 15
C[C@H](CSC(=O)c1ccccc1)C(=O)N1C[C@@H](Sc2ccccc2)C[C@H]1C(=O)O = 13.2
CCC(=O)Oc1ccc2c(c1)CC[C@@H]1[C@@H]2CC[C@]2(C)[C@@H](OC(=O)CC)CC[C@@H]12 = -6.54
NCCC[C@H](N)C(=O)O = -1.29
CCCC(=O)O[C@]1(C(=O)COC(=O)CC)[C@@H](C)C[C@H]2[C@@H]3CCC4=CC(=O)C=C[C@]4(C)[C@@]3(F)[C@@H](O)C[C@@]21C = -15.1
CCCC(CCC)C(N)=O = -4.93
